Cited source for all entries: PubChem BioAssay AID1159580

Assay: chemical genetic growth profiling, strain panel (AID 1159580);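 note: tested at 20 µM; growth read once vehicle control cultures reached saturation at 30 °C; 1 = growth at the plate median or of vehicle wells; lower values mean less growth of the strain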
Conditions: S. cerevisiae deletion strains, growth OD, locus YBR009C, strain hhf1, hits give low values
Hit rate of the full screen: of about 5,500 compounds, about 2,000 (36%) were called active. Inconclusive results (about 18%) are left out. Some of the results follow.
List of normalized growth values.
Number, no unit, nothing else.

Below: 4 compounds and their reported normalized growth.
C[C@]12CCC3c4ccc(O)cc4CCC3C1CC[C@@H]2O (stereo not given in full)    0.91
COc1ccc(-c2cc(=O)c3c(O)cc(O[C@H]4O[C@H](CO[C@@H]5O[C@@H](C)[C@H](O)[C@@H](O)[C@H]5O)[C@@H](O)[C@H](O)[C@H]4O)cc3o2)cc1    1
CC(=O)[C@@]1(O)CCC2C3C[C@H](C)C4=CC(=O)C=CC4(C)[C@@]3(F)[C@@H](O)C[C@@]21C (stereo not given in full)    0.931
CC(CC(O)C1OC1(C)C)[C@@H]1CCC2(C)C3=CCC4C(C)(C)C(=O)CCC4(C)C3CC[C@@]12C (stereo not given in full)    0.979

Now for a further compound.
Need normalized growth of CCN(Cc1ccncc1)C(=O)C(CO)c1ccccc1 (stereo not given) , thanks. 1.03
